# Test system: ARPE-19 cells
# Test protocol: Collagen gel contraction assay, ARPE-19 cells
# Format: cell-based, human
# Assay context: 1 hour pretreatment, normalized to vehicle control, read-out: concentration required to achieve 50% inhibition of the gel contraction
Experimental readout: IC50 (nM)

> print(dat)
                           compound.smiles  assayed.system  value.units  experimental.value
1  CC(C)(C)n1nc(-c2ccc(Cl)cc2)c2c(N)ncnc21   ARPE-19 cells           nM                2500
